Origin of values: paper doi:10.1101/2023.02.25.530034v1

Sequence of the target: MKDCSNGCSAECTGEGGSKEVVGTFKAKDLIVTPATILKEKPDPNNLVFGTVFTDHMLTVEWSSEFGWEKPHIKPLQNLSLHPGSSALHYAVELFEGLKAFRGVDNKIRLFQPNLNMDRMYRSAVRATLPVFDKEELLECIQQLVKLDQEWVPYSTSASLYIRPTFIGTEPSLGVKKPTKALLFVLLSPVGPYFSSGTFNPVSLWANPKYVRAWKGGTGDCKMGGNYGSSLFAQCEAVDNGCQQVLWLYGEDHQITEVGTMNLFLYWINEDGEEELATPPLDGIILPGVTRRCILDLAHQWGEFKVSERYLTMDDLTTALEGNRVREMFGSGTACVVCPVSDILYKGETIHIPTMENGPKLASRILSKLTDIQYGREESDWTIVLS
pIC50: −log10 of the molar value.
experimental_readout: pIC50

Q: Please give the documented pIC50 of O=C(O)CCC(C(=O)c1ccc(Br)cc1)c1ccccc1 (stereo not shown)
Ans: ~9.30
